// provenance: paper PMC11459959

# Tested on: HIV-1 transcripts
# testSummary: RNA-seq of HIV-1 transcripts in infected TZM-bl cells
# Format: cell-based
# statedConditions: HIV-1NL4-3 MOI 1, 1.5 µM, 2 days
# Method: At 48 h after infection, the total RNA was extracted using the Maxwell RSC simplyRNA Cells Kit (Promega) according to the manufacturer’s instructions. RNA integrity was evaluated as RNA integrity number >6 using the Agilent 2100 Bio-analyzer (Agilent Technologies, Santa Clara, CA, USA). […] Subsequently, these cDNA libraries were sequenced on the Illumina sequencing platform (NovaSeq6000; Illumina) and 150 bp paired-end reads were generated. […]
assayReadout: read counts of transcripts mapped to the HIV-1 genome

[[record]]
compound = "Cc1[nH]c2ccc(-c3nnc(SCC(=O)N4CCCCC4)o3)cc2c1C"
studysystem = "HIV-1 transcripts"
testvalue = "substantially reduced"

[[record]]
compound = "Cc1[nH]c2ccc(-c3nnc(S(=O)(=O)C(C)C(=O)N4CCCCC4)o3)cc2c1C (stereo not shown)"
studysystem = "HIV-1 transcripts"
testvalue = "not observed"

[[record]]
compound = "Cc1[nH]c2ccc(-c3nnc(SCC(=O)N4CCCC4)o3)cc2c1C"
studysystem = "HIV-1 transcripts"
testvalue = "substantially reduced"

[[record]]
compound = "Cc1[nH]c2ccc(-c3nnc(S(=O)(=O)C(C)C(=O)N4CCCC4)o3)cc2c1C (stereo not shown)"
studysystem = "HIV-1 transcripts"
testvalue = "not observed"

